Tested on: MDA-N
Test: NCI tumour cell line growth inhibition, 48 h
Activity calls are given as the source filed them. Rule as the data show it: active = GI50 up to about 1.1 µM and inactive = higher.
Answer with one of the outcomes given here: active, inactive

Cn1c(=O)oc2cc(C(=O)CSC(=S)N3CCCCCC3)ccc21 | inactive
c1cc2nnc1SCCSCCCSCCS2 | inactive
CN(C)CCCNC(CC#N)CCC#N (stereo not given) | inactive
C[C@]1(S(=O)(=O)c2ccccc2)C[C@H]2N(Cc3ccccc3)[C@@H]1CCC21OCCO1 | inactive
C[C@@H](c1ccccc1)C(CC#N)[C@H]1CCC[C@]1(O)C#Cc1ccc2c(c1)OCO2 (stereo not given in full) | inactive

Lookup: // return assay outcome for CCOC(=O)C1CCCC1S(=O)(=O)c1ccc(C)cc1 (stereo not given)
Found: inactive

Lookup: // return assay outcome for COc1cc([C@@H]2c3cc4c(c(O)c3C[C@H]3COC(=O)[C@@H]32)OCO4)cc(OC)c1OC
Found: active

Lookup: // return assay outcome for C[N+](C)(C)CC1Cc2ccccc2C1=O (stereo not given)
Found: inactive

Lookup: // return assay outcome for COc1c(C)c2c(c(O)c1C/C=C(\C)CCC(=O)O)C(=O)OC2
Found: inactive

Lookup: // return assay outcome for C/C(=N\Nc1nc2ccccc2[nH]1)c1cnccn1
Found: inactive
